A collection of variants and their measured protein stability index
B1: INTS3 (parent)
chain: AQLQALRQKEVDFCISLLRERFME

variants of: B1; experiment: protein stability index of a GFP-peptide fusion (GPS, HEK-293T) (PSI 1-6); higher = more stable; conditions: c terminus: a fixed tail appended;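 further: lentivirally expressed fusions sorted by FACS into six bins by GFP to DsRed ratio, PSI derived from sequencing read proportions per bin multiplied by bin number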
Keep the answer to the number alone.

Sample answers from the record:
> print(dat)
                    query.sequence  observed.measurement
1   AQLQFLRQKEVDFCISLLRERFME [A5F]                  4.25
2  AQLQALRQKEVDFCISLLMERFME [R19M]                  2.43
3   AQLTALRQKEVDFCISLLRERFME [Q4T]                  3.02
4  AQLQALRQKEVDFCISLLQERFME [R19Q]                  2.74
5  AQLQALRQKEVDFCLSLLRERFME [I15L]                  2.84

What value of protein stability index has been recorded for this entry: AHLQALRQKEVDFCISLLRERFME [Q2H]
4.58

What value of protein stability index has been recorded for this entry: AQLQATRQKEVDFCISLLRERFME [L6T]
1.86

What value of protein stability index has been recorded for this entry: AQLQCLRQKEVDFCISLLRERFME [A5C]
3.02

What value of protein stability index has been recorded for this entry: AQLQALRQKEHDFCISLLRERFME [V11H]
3.66

What value of protein stability index has been recorded for this entry: AQLQAYRQKEVDFCISLLRERFME [L6Y]
2.57

What value of protein stability index has been recorded for this entry: AQLQALRQDEVDFCISLLRERFME [K9D]
1.9

What value of protein stability index has been recorded for this entry: AQLQALRQFEVDFCISLLRERFME [K9F]
2.45

What value of protein stability index has been recorded for this entry: AQLQALRQKEVDFCISLLRERFMG [E24G]
1.92

What value of protein stability index has been recorded for this entry: AQLQALRQKEVDFCISLLRERFMQ [E24Q]
1.4

What value of protein stability index has been recorded for this entry: AQLQALRQKEVDFCISLLRSRFME [E20S]
5.14
